The measurements presented in this section are drawn from PubChem BioAssay (NCI).

Tested on: BT-549 breast
testName: NCI tumour cell line growth inhibition, 48 h
Each record here notes measured TGI.

Some entries whose results are on file:
CCOc1ccccc1N=Nc1c(C)[nH]n(-c2nc(-c3ccccc3)cs2)c1=O | > 100 µM
O=c1nc2oc3ccc4ccccc4c3cc-2s1 | > 100 µM
COc1cccc(-n2ncc3c(N/N=C/c4ccncc4)ncnc32)c1 | > 25 µM
NC(=O)c1c(NC(=O)c2ccc3c(c2)OCO3)sc2c1CCC(=O)C2 | 5.57 µM

I am curious: what TGI value has been reported for COc1ccc(C2SC(C)C(=O)N2NC(=O)C(O)c2ccccc2)cc1OC (centres undefined) ?
> 100 µM

I am curious: what TGI value has been reported for `COC(=O)c1c(O)ccc2c1c1c(n2Cc2cccc(C)c2)C(=O)c2ccccc2C1=O` ?
29 µM

I am curious: what TGI value has been reported for `CCOC(=O)c1c(N2CCCC2)ncn(Cc2ccccc2)c1=S` ?
> 100 µM

I am curious: what TGI value has been reported for `COc1ccc(-c2c(C#N)c(S)n(NS(=O)(=O)c3ccc(C)cc3)c(=O)c2C#N)cc1` ?
32.5 µM

I am curious: what TGI value has been reported for `Cc1c(NC(=O)CSC(=S)N2CCN(Cc3ccccc3)CC2)c(=O)n(-c2ccccc2)n1C` ?
> 100 µM
